Kindly supply the reported log10 GI50 values for the records listed here.
test system: SF-295; experiment: NCI-60 panel test; type: cell-based; conditions: Homo sapiens; SF-295, NCI-60 5-dose study
Heads up: the numbers are on a log10 scale; they represent GI50 in µM.

# compound COc1ccc(Oc2ccccc2NC(=O)CNC(=O)c2cccc3ccccc23)cc1 ; its log10 GI50 = -0.40

# compound COc1cccc(Oc2ccccc2NC(=O)CNC(=O)c2cccc3ccccc23)c1 ; its log10 GI50 = -0.95

# compound O=C(CNC(=O)c1cccc2ccccc12)Nc1ccccc1Oc1cccc(O)c1 ; its log10 GI50 = 0.34

# compound O=C(CNC(=O)c1cccc2ccccc12)Nc1ccccc1Oc1ccccc1 ; its log10 GI50 = -0.60

# compound O=C(CNC(=O)c1cccc2ccccc12)Nc1ccccc1Oc1ccc(O)cc1 ; its log10 GI50 = -0.21

====

assay: Pharmacokinetics (PK) of AOH1160 in animals; type: in vivo, Rat; conditions: rat, in vivo, po, 20 mg/kg, Rat PO 20 mg/kg, Single dosing
property_label: Cmax

# compound O=C(CNC(=O)c1cccc2ccccc12)Nc1ccccc1Oc1ccccc1 ; its Cmax = 50 ng/mL

====

Kindly supply the reported log10 of GI50 values for the records listed here.
test system: EKVX
Heads up: the numbers are on a log10 scale; they represent GI50 in nM.

# compound COc1ccc(Oc2ccccc2NC(=O)CNC(=O)c2cccc3ccccc23)cc1 ; its log10 of GI50 = 3.14

# compound O=C(CNC(=O)c1cccc2ccccc12)Nc1ccccc1Oc1cccc(O)c1 ; its log10 of GI50 = 3.95

# compound O=C(CNC(=O)c1cccc2ccccc12)Nc1ccccc1Oc1ccc(O)cc1 ; its log10 of GI50 = 3.07

# compound O=C(CNC(=O)c1cccc2ccccc12)Nc1ccccc1Oc1ccccc1 ; its log10 of GI50 = 2.89

# compound COc1cccc(Oc2ccccc2NC(=O)CNC(=O)c2cccc3ccccc23)c1 ; its log10 of GI50 = 3.11

====

Kindly supply the reported IC50 values for the records listed here.
tested on: NB cell lines; test: Cell viability assay on NB cell lines; format: cell-based, human; conditions: Homo sapiens; multiple NB cell lines; read-out: IC50 range over NB cell lines

# compound O=C(CNC(=O)c1cccc2ccccc12)Nc1ccccc1Cc1ccccc1 [AOH39, reference compound] ; its IC50 = 1300 to 2800 nM

# compound O=C(CNC(=O)c1cccc2ccccc12)Nc1ccccc1Oc1ccccc1 ; its IC50 = 180 to 220 nM

====

Kindly supply the reported GI50 values for the records listed here.
tested on: UACC-62
Enter your answer as a number in nM; do not include the unit.

# compound O=C(CNC(=O)c1cccc2ccccc12)Nc1ccccc1Oc1ccccc1 [AOH1160] ; its GI50 = 178

# compound COc1ccc(Oc2ccccc2NC(=O)CNC(=O)c2cccc3ccccc23)cc1 [PCNA6] ; its GI50 = 562

# compound O=C(CNC(=O)c1cccc2ccccc12)Nc1ccccc1Oc1ccc(O)cc1 [PCNA1] ; its GI50 = 1170

# compound COc1cccc(Oc2ccccc2NC(=O)CNC(=O)c2cccc3ccccc23)c1 [PCNA7/ AOH1996] ; its GI50 = 209

# compound O=C(CNC(=O)c1cccc2ccccc12)Nc1ccccc1Oc1cccc(O)c1 [PCNA2] ; its GI50 = 1620

====

test system: SNB-75; test: NCI-60 panel test; assay type: cell-based; conditions: Homo sapiens; SNB-75, NCI-60 5-dose study
Kindly supply the reported GI50 values for the records listed here.
Enter your answer as a number in µM; do not include the unit.

# compound O=C(CNC(=O)c1cccc2ccccc12)Nc1ccccc1Oc1ccc(O)cc1 ; its GI50 = 0.589

# compound COc1cccc(Oc2ccccc2NC(=O)CNC(=O)c2cccc3ccccc23)c1 ; its GI50 = 0.129

# compound O=C(CNC(=O)c1cccc2ccccc12)Nc1ccccc1Oc1cccc(O)c1 ; its GI50 = 3.31

# compound O=C(CNC(=O)c1cccc2ccccc12)Nc1ccccc1Oc1ccccc1 ; its GI50 = 0.229
